Below, each of the variants is paired with its reported protein stability index value.
B1: TRAF3IP2 (parent)
chain: YGHDYPRAAYQQVIQPALPGQPLP

- Variants of: B1
- protocol: protein stability index of a GFP-peptide fusion (GPS, HEK-293T) (PSI 1-6); higher = more stable;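 also: lentivirally expressed fusions sorted by FACS into six bins by GFP to DsRed ratio, PSI derived from sequencing read proportions per bin multiplied by bin number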
- condition: c terminus: a fixed tail appended
In your answer, state the number alone without any accompanying words.

Please review the following examples before continuing.
Prompt: Item under review: "G20E" . Reported protein stability index?
Response: 2.52

Prompt: Item under review: "G2Y" . Reported protein stability index?
Response: 2.38

Prompt: Item under review: "Q21G" . Reported protein stability index?
Response: 1.58

Next:
Prompt: Item under review: "D4H" . Reported protein stability index?
Response: 1.94

Prompt: Item under review: "P24S" . Reported protein stability index?
Response: 1.43

Prompt: Item under review: "A9F" . Reported protein stability index?
Response: 2.15

Prompt: Item under review: "Y10N" . Reported protein stability index?
Response: 1.85

Prompt: Item under review: "P16F" . Reported protein stability index?
Response: 2.74

Prompt: Item under review: "A9M" . Reported protein stability index?
Response: 1.98

Prompt: Item under review: "H3W" . Reported protein stability index?
Response: 1.69

Prompt: Item under review: "P22K" . Reported protein stability index?
Response: 2.17

Prompt: Item under review: "L18S" . Reported protein stability index?
Response: 1.6

Prompt: Item under review: "Y5D" . Reported protein stability index?
Response: 4.01

Prompt: Item under review: "V13E" . Reported protein stability index?
Response: 1.74

Prompt: Item under review: "P24H" . Reported protein stability index?
Response: 1.83

Prompt: Item under review: "P6S" . Reported protein stability index?
Response: 2.6

Where do these numbers come from? They come from the supplement of paper PMC10567573.
